- System: HOP-18 NSCLC
- method_description: NCI tumour cell line growth inhibition, 48 h
outcome_measure: TGI

Example entries begin here.
CC(C)C(N=c1c2ccccc2n(O)c2ccccc12)C(=O)O (stereo not given) :: > 100 µM
COC12OCCN(CCO)C1=CC(=O)C1(C)N=NC(C)C12 (stereo not given) :: > 100 µM
CCOC(=O)Cn1c(=O)[nH]c(=O)c2c1ncn2Cc1ccccc1 :: > 100 µM
O=C(O)COc1ccc(C(=O)/C(SS/C(C(=O)c2ccc(OCC(=O)O)c(Cl)c2Cl)=C2\C=C(c3ccc(F)cc3)SS2)=C2/C=C(c3ccc(F)cc3)SS2)c(Cl)c1Cl :: 43.6 µM
COc1cc2c(cc1OC)C(C#N)(Cc1ccccc1)N(C(=O)c1ccccc1)C=C2 (stereo not given) :: > 100 µM

Incoming: // TGI lookup, key: COc1ccc(C(=O)NCCC2=CCCCC2)cc1
Outgoing: > 100 µM

Incoming: // returns reported TGI for input CN(C)CCn1cnc2sc3ccccc3c21
Outgoing: > 100 µM

Incoming: Can you share its TGI? I mean this molecule: C#C[C@]1(O)CCC2C3CCc4cc(Oc5nc(F)nc(-n6c(C)nc7cc8ccccc8cc76)n5)ccc4C3CCC21C (stereo not given in full)
Outgoing: > 100 µM

Incoming: Entry under review: COc1ccc(C2SCc3nc4ccccc4n32)cc1 (stereo not given) . Reported TGI?
Outgoing: > 100 µM

Incoming: Please report the recorded TGI for CC1=C(C(=O)CC(=O)C(=O)Nc2cccc(C)c2C)Sc2ccccc2N1 .
Outgoing: > 100 µM
